Attribute: IC50
- target-or-test-system: DPPIV (Homo sapiens (Human), UniProt P27487)
- Sequence (P27487 whole entry): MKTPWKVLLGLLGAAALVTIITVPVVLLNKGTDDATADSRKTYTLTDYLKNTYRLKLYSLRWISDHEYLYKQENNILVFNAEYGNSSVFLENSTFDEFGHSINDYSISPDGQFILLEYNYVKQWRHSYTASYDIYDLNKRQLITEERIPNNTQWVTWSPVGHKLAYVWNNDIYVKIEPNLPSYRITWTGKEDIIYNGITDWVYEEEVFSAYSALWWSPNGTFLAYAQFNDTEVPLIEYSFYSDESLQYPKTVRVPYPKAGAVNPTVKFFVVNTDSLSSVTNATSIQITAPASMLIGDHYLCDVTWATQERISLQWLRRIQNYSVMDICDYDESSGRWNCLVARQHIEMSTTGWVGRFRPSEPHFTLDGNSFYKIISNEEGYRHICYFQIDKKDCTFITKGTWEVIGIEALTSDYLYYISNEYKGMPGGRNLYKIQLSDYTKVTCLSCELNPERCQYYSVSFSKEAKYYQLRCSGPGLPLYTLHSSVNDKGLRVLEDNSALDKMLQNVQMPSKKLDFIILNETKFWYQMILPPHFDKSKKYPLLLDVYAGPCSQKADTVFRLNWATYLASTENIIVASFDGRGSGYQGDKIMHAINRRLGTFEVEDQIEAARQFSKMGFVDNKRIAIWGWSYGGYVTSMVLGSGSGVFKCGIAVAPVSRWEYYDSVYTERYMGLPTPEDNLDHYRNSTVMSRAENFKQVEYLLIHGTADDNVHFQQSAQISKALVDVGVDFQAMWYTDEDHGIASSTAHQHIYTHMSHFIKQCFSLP
- procedure-summary: DPP-IV-inhibiting activity, fluorescence assay with Ala-Pro-AMC substrate
- Type: biochemical
- condition-parameters: pH7.5, 37° C.
Where a name gives a salt, the structure may show the parent alone.
A number alone suffices; assume nM.

The following molecules have reported results that may help.
Look up DPPIV (Homo sapiens (Human), UniProt P27487) data: IC50 of CN(C)C(=O)N1C[C@@H]2CCN(C(=O)C[C@H](N)Cc3cc(F)c(F)cc3F)[C@@H]2C1 [Compound 3, fumarate] , then report it.
17.7

# return IC50 for CC(C)(F)C(=O)N1C[C@@H]2CCN(C(=O)C[C@H](N)Cc3cc(F)c(F)cc3F)[C@@H]2C1 , test system: DPPIV (Homo sapiens (Human), UniProt P27487)
11.2

Given CN1C[C@@H]2CCN(C(=O)C[C@H](N)Cc3cc(F)c(F)cc3F)[C@@H]2C1 [Compound 1, fumarate] , report its IC50 on DPPIV (Homo sapiens (Human), UniProt P27487).
22.8

Lab note: record IC50 of CC(C)(C)C(=O)N1C[C@@H]2CCN(C(=O)C[C@H](N)Cc3cc(F)c(F)cc3F)[C@@H]2C1 tested on DPPIV (Homo sapiens (Human), UniProt P27487).
23.2

Enter recorded IC50 with DPPIV (Homo sapiens (Human), UniProt P27487) for CS(=O)(=O)c1cccc(C(=O)N2C[C@@H]3CCN(C(=O)C[C@H](N)Cc4cc(F)c(F)cc4F)[C@@H]3C2)c1.O=C(O)/C=C/C(=O)O [Compound 26, fumarate] here.
2.61

Continuing:
Give reported IC50 for N[C@@H](CC(=O)N1CC[C@H]2CN(C(=O)C3CC3)C[C@H]21)Cc1cc(F)c(F)cc1F [Compound 12, fumarate] (DPPIV (Homo sapiens (Human), UniProt P27487))
25.9

Recall the reported IC50 of N#CC1(C(=O)N2C[C@@H]3CCN(C(=O)C[C@H](N)Cc4cc(F)c(F)cc4F)[C@@H]3C2)CC1 [Compound 17, fumarate] on DPPIV (Homo sapiens (Human), UniProt P27487) and write it down.
11.5

----------
- procedure-summary: In vivo pharmacokinetic study in rats (gavage)
- Design: species or system SD rats
- condition-parameters: male, SD, rat, plasma, po, 20 mg/kg gavage
Measured half-life, listed per entry.
Respond numerically; units are h and should not be typed.

Given the compound CC(C)(C)C(=O)N1C[C@@H]2CCN(C(=O)C[C@H](N)Cc3cc(F)c(F)cc3F)[C@@H]2C1 [Compound 20] , write its reported half-life.
2.45

Now consider a different compound.
For the compound CC(C)(F)C(=O)N1C[C@@H]2CCN(C(=O)C[C@H](N)Cc3cc(F)c(F)cc3F)[C@@H]2C1 [Compound 8] , give its measured half-life value.
2.29

----------
- target-or-test-system: DPP8 (Homo sapiens (Human))
- Sequence (Q6V1X1 whole entry): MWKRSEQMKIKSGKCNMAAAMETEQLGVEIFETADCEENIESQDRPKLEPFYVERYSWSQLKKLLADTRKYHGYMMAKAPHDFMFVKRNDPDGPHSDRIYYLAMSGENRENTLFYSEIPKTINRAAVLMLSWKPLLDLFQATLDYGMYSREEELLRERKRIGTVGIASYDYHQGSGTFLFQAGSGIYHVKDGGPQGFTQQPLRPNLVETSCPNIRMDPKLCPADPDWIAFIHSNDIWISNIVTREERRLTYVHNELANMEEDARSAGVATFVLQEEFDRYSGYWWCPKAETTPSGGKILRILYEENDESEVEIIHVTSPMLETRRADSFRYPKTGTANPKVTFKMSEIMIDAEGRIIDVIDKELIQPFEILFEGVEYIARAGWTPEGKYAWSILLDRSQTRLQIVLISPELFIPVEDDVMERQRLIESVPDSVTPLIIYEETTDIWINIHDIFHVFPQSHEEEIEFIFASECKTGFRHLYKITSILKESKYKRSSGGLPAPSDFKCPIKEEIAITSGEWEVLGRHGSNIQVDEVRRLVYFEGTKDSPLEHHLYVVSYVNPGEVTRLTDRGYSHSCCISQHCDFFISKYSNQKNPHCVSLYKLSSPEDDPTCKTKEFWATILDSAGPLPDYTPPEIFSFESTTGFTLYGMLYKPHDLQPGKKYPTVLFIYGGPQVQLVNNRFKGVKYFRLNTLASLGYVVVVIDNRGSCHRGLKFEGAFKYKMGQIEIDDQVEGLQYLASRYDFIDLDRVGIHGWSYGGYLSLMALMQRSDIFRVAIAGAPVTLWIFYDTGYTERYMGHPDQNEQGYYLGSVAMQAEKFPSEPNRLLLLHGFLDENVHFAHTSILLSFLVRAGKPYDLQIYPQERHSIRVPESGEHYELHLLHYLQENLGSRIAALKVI
- procedure-summary: Selectivity panel, recombinant dipeptidase inhibition (fluorescence substrate): DPP8
- Type: biochemical
- condition-parameters: recombinant DPP8
readout-name: pIC50
// scale note: pIC50 = -log10(conc_M); give the bare number

Indicate its recorded pIC50; the molecule in question is CC(C)(C)C(=O)N1C[C@@H]2CCN(C(=O)C[C@H](N)Cc3cc(F)c(F)cc3F)[C@@H]2C1 [Compound 20]
4.68

Return reported pIC50. Input molecule: CS(=O)(=O)c1cccc(C(=O)N2C[C@@H]3CCN(C(=O)C[C@H](N)Cc4cc(F)c(F)cc4F)[C@@H]3C2)c1.O=C(O)/C=C/C(=O)O [Compound 26, fumarate]
4.80

Below: the item to evaluate.
Give recorded pIC50. CC(C)(F)C(=O)N1C[C@@H]2CCN(C(=O)C[C@H](N)Cc3cc(F)c(F)cc3F)[C@@H]2C1 [Compound 8]
4.75

----------
- target-or-test-system: DPP9 (Homo sapiens (Human), UniProt Q86TI2)
- Sequence (Q86TI2 whole entry): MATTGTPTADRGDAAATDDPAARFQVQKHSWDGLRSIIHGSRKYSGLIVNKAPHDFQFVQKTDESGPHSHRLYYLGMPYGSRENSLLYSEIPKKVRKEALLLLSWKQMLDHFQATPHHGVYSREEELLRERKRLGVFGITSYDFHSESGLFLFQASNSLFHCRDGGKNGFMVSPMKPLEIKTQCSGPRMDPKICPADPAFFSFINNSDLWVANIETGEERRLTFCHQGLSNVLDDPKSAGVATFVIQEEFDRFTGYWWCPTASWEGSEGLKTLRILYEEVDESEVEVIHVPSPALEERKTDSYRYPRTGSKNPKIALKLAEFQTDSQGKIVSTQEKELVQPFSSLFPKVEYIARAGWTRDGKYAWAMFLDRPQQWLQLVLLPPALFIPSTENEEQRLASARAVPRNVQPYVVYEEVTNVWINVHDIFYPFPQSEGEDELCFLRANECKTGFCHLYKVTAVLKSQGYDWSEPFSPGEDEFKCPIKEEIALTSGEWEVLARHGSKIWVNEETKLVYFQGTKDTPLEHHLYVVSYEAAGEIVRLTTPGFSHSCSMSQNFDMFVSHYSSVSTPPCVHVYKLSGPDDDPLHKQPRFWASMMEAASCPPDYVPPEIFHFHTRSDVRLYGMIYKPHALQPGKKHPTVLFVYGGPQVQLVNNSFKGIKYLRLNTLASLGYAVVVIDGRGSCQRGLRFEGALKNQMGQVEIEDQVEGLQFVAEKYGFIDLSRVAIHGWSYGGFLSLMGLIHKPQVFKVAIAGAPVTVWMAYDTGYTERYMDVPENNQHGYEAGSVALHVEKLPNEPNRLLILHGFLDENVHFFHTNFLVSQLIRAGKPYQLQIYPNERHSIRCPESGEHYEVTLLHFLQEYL
- procedure-summary: Selectivity panel, recombinant dipeptidase inhibition (fluorescence substrate): DPP9
- condition-parameters: recombinant DPP9
readout-name: pIC50
Note on units: pIC50 is unitless, being -log10 of a concentration expressed in mol/L.

Item CC(C)(F)C(=O)N1C[C@@H]2CCN(C(=O)C[C@H](N)Cc3cc(F)c(F)cc3F)[C@@H]2C1 : provide pIC50
5.45

Entry CS(=O)(=O)c1cccc(C(=O)N2C[C@@H]3CCN(C(=O)C[C@H](N)Cc4cc(F)c(F)cc4F)[C@@H]3C2)c1.O=C(O)/C=C/C(=O)O [Compound 26, fumarate] needs its pIC50 filled in; supply it.
5.46

Next item in the queue.
Please report the measured pIC50 for CC(C)(C)C(=O)N1C[C@@H]2CCN(C(=O)C[C@H](N)Cc3cc(F)c(F)cc3F)[C@@H]2C1
5.26

----------
Tmax: recorded values
- procedure-summary: In vivo pharmacokinetic study in rats (gavage)
- Design: species or system SD rats
- condition-parameters: male, SD, rat, plasma, po, 20 mg/kg gavage, read-out: Tmax
- Experimental: 12 healthy, male SD rats with 200-220 g body weight were assigned randomly to 3 groups (4 in each group), particular assignment was shown in the table below: Rats were fasted for 12 h before test with free access to water and uniformly fed at 2 h after administration. […]
Write the numeric value and follow it with the unit.

Return Tmax for the following compound: CC(C)(C)C(=O)N1C[C@@H]2CCN(C(=O)C[C@H](N)Cc3cc(F)c(F)cc3F)[C@@H]2C1
48.6 min

Further cases:
Dear colleague, please send me the reported Tmax for CC(C)(F)C(=O)N1C[C@@H]2CCN(C(=O)C[C@H](N)Cc3cc(F)c(F)cc3F)[C@@H]2C1 when you can.
60 min

----------
Reported IC50 values for a set of molecules
- target-or-test-system: FAP (Homo sapiens (Human))
- Sequence (Q12884 whole entry): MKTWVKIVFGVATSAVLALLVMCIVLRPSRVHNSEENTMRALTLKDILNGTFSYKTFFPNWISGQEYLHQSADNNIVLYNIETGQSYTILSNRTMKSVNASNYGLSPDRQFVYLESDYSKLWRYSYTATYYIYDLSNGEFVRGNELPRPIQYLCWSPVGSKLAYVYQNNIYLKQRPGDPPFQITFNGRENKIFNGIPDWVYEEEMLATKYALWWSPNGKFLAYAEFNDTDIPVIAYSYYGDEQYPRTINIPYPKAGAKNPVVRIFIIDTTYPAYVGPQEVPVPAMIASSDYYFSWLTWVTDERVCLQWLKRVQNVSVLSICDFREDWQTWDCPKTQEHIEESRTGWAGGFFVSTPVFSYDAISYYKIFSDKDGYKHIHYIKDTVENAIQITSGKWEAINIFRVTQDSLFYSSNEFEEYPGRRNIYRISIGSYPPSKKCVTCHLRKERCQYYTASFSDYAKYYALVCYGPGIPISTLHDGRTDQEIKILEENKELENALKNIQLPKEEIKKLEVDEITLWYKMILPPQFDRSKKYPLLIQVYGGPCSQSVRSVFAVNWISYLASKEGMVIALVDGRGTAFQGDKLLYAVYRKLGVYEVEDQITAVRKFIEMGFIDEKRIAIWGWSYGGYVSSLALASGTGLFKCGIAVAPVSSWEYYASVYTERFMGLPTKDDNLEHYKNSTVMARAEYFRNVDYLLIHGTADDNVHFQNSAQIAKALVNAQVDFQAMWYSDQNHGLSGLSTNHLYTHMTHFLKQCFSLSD
- procedure-summary: Selectivity panel, recombinant dipeptidase inhibition (fluorescence substrate): FAP
Expressed in µM, but write only the number.

Return reported IC50. Input molecule: CC(C)(F)C(=O)N1C[C@@H]2CCN(C(=O)C[C@H](N)Cc3cc(F)c(F)cc3F)[C@@H]2C1 [Compound 8]
13.5

Respond only with IC50 recorded for CC(C)(C)C(=O)N1C[C@@H]2CCN(C(=O)C[C@H](N)Cc3cc(F)c(F)cc3F)[C@@H]2C1 [Compound 20]
15.9

Quote IC50 reported for CS(=O)(=O)c1cccc(C(=O)N2C[C@@H]3CCN(C(=O)C[C@H](N)Cc4cc(F)c(F)cc4F)[C@@H]3C2)c1.O=C(O)/C=C/C(=O)O [Compound 26, fumarate] please.
11.3

----------
- target-or-test-system: UniProt P27487
- procedure-summary: Selectivity panel, recombinant dipeptidase inhibition (fluorescence substrate): DPPIV
- Type: biochemical
readout-name: IC50 (nM)
The answer is to be given in nM; state only the numeric part.

Answered cases to consult:
Return reported IC50. Input compound: CC(C)(F)C(=O)N1C[C@@H]2CCN(C(=O)C[C@H](N)Cc3cc(F)c(F)cc3F)[C@@H]2C1
11

Look up and report measured IC50 for this entry: CS(=O)(=O)c1cccc(C(=O)N2C[C@@H]3CCN(C(=O)C[C@H](N)Cc4cc(F)c(F)cc4F)[C@@H]3C2)c1.O=C(O)/C=C/C(=O)O [Compound 26, fumarate]
2.6

Further cases:
Identify measured IC50 associated with CC(C)(C)C(=O)N1C[C@@H]2CCN(C(=O)C[C@H](N)Cc3cc(F)c(F)cc3F)[C@@H]2C1
23

Data credit: patent US8785477B2
